# TEST PROTOCOL: Liver microsomal stability, statements across species
# Type: in vitro ADME
# RUN PARAMETERS: CD1 (mouse), IGS Sprague-Dawley (rat), Beagle (dog), human, pooled liver microsomes, pH 7.4
PARAMETER: half-life at 10 µM

Lookup: Report measured half-life at 10 µM; entry is CCCCCCCC(O)CC(=O)CCc1ccc(O)c(OC)c1 (centres unmarked)
Found: < 30 min

Lookup: Report measured half-life at 10 µM; entry is CCCCC/C=C/C(=O)CCc1ccc(O)c(OC)c1
Found: < 30 min

* * *

# TEST PROTOCOL: Mouse pharmacokinetic study of oral GE with and without ketoconazole, plasma with and without β-glucuronidase treatment
# Type: in vivo, male mice (C57BL6J)
# RUN PARAMETERS: male, C57BL6J; mouse plasma; 250 mg/kg GE oral; 0.5 h; −βgd
PARAMETER: concentration at 0.5 h (ng/mL)
Number only, in ng/mL; omit the unit.

Lookup: Report measured concentration at 0.5 h; entry is CCCCC[C@H](O)CC(=O)CCc1ccc(O)c(OC)c1
Found: 1.79

Lookup: Report measured concentration at 0.5 h; entry is CCCCC/C=C/C(=O)CCc1ccc(O)c(OC)c1
Found: 1.26

Lookup: Report measured concentration at 0.5 h; entry is CCCCCCCCCC(O)CC(=O)CCc1ccc(O)c(OC)c1 (stereo not shown) [10G, 10-gingerol]
Found: 56

Lookup: Report measured concentration at 0.5 h; entry is CCCCCCCC(O)CC(=O)CCc1ccc(O)c(OC)c1 (stereo not shown)
Found: 0.23
